- Test system: Blumeria graminis f. sp. hordei; Synonym: Erysiphe graminis f. sp. hordei
- testDetails: Barley powdery mildew (ERYSGH) disease control
- Format: in vivo
- protocolConditions: 24 h, 1 Day Protectant, high volume, read-out: Disease Control ERYSGH 1 DP
observedProperty: pest or weed control at 100 ppm

- itemSmiles: "COc1ccnc(C(=O)N[C@H]2CCC[C@H](OCC(C)C)[C@@H](OC)[C@H](C)OC2=O)c1OCOC(C)=O"
  pest or weed control at 100 ppm: "< 0%"

[in] Quickly give me recorded pest or weed control at 100 ppm for COc1ccnc(C(=O)N[C@H]2CCC[C@H](Oc3ccccc3)[C@@H](OC(=O)C3CC3)[C@H](C)OC2=O)c1OC(C)=O
[out] 0 to 80%

[in] Quickly give me recorded pest or weed control at 100 ppm for COc1ccnc(C(=O)N[C@H]2CCC[C@H](OCC(C)C)[C@@H](OCC(C)C)[C@H](C)OC2=O)c1OCOC(C)=O
[out] 80 to 100%

[in] Quickly give me recorded pest or weed control at 100 ppm for C=C(C)CO[C@H]1CCC[C@H](NC(=O)c2nccc(OC)c2OCOC(=O)C(C)C)C(=O)O[C@@H](C)[C@@H]1OC
[out] 0 to 80%

[in] Quickly give me recorded pest or weed control at 100 ppm for COc1ccnc(C(=O)N[C@H]2CCC[C@H](Oc3ccccc3)[C@@H](OCCCc3ccccc3)[C@H](C)OC2=O)c1OCOC(C)=O
[out] 0 to 80%

[in] Quickly give me recorded pest or weed control at 100 ppm for COc1ccc(O[C@H]2CCC[C@H](NC(=O)c3nccc(OC)c3OCOC(C)=O)C(=O)O[C@@H](C)[C@@H]2OC2CCCC2)cc1
[out] 0 to 80%

[in] Quickly give me recorded pest or weed control at 100 ppm for COc1ccnc(C(=O)N[C@H]2CCC[C@H](OCC(C)C)[C@@H](OC3CCCC3)[C@H](C)OC2=O)c1OCOC(=O)C(C)C
[out] 80 to 100%

[in] Quickly give me recorded pest or weed control at 100 ppm for CCOCC(=O)OCOc1c(OC)ccnc1C(=O)N[C@H]1CCC[C@H](Oc2ccccc2)[C@@H](OC(=O)C2CCCC2)[C@H](C)OC1=O
[out] 0 to 80%

###

- System: Mycosphaerella graminicola; Anamorph: Septoria tritici
- testDetails: Leaf blotch of wheat (SEPTTR) disease control on wheat seedlings
- Type: in vivo
- protocolConditions: Zymoseptoria tritici, 24 h; Wheat Leaf Blotch; 1 Day Protectant; low volume application, 121.5 g/H; read-out: Disease Control SEPTTR 1 DP 121.5 g/H
Parameter: pest or weed control at 121.5 g/ha. Scope: all listed entries.

- itemSmiles: "COc1ccnc(C(=O)N[C@H]2CCC[C@H](OCC(C)C)[C@@H](OC)[C@H](C)OC2=O)c1OC(C)=O"
  observedProperty: "pest or weed control at 121.5 g/ha"
  measurement: "80 to 100%"
- itemSmiles: "COc1ccnc(C(=O)N[C@H]2CCC[C@H](Oc3ccccc3)[C@@H](OC(=O)C3CCCC3)[C@H](C)OC2=O)c1OC(=O)C1CC1"
  observedProperty: "pest or weed control at 121.5 g/ha"
  measurement: "80 to 100%"
- itemSmiles: "CCCO[C@H]1CCC[C@H](NC(=O)c2nccc(OC)c2OC(C)=O)C(=O)O[C@@H](C)[C@@H]1Oc1cccc(Cl)c1"
  observedProperty: "pest or weed control at 121.5 g/ha"
  measurement: "80 to 100%"
- itemSmiles: "C=C(C)c1ccc(O[C@H]2[C@H](C)OC(=O)[C@@H](NC(=O)c3nccc(OC)c3OC(C)=O)CCC[C@@H]2OCCC)cc1"
  observedProperty: "pest or weed control at 121.5 g/ha"
  measurement: "80 to 100%"
- itemSmiles: "CCCO[C@H]1[C@H](C)OC(=O)[C@@H](NC(=O)c2nccc(OC)c2OC(C)=O)CCC[C@@H]1Oc1cc(C)cc(C)c1"
  observedProperty: "pest or weed control at 121.5 g/ha"
  measurement: "80 to 100%"

[in] Look up Mycosphaerella graminicola; Anamorph: Septoria tritici data: pest or weed control at 121.5 g/ha of C=C(C)CO[C@H]1CCC[C@H](NC(=O)c2nccc(OC)c2OCOC(=O)C(C)C)C(=O)O[C@@H](C)[C@@H]1OC , then report it.
[out] < 0%

[in] Look up Mycosphaerella graminicola; Anamorph: Septoria tritici data: pest or weed control at 121.5 g/ha of COc1ccnc(C(=O)N[C@H]2CCC[C@H](Oc3ccccc3)[C@@H](OC)[C@H](C)OC2=O)c1OCOC(=O)C(C)C , then report it.
[out] 0 to 80%

[in] Look up Mycosphaerella graminicola; Anamorph: Septoria tritici data: pest or weed control at 121.5 g/ha of CCOCC(=O)OCOc1c(OC)ccnc1C(=O)N[C@H]1CCC[C@H](Oc2ccccc2)[C@@H](OC(=O)C2CCCC2)[C@H](C)OC1=O , then report it.
[out] < 0%

[in] Look up Mycosphaerella graminicola; Anamorph: Septoria tritici data: pest or weed control at 121.5 g/ha of CCCO[C@H]1CCC[C@H](NC(=O)c2nccc(OC)c2OC(C)=O)C(=O)O[C@@H](C)[C@@H]1Oc1ccc(Br)cc1 , then report it.
[out] 80 to 100%

[in] Look up Mycosphaerella graminicola; Anamorph: Septoria tritici data: pest or weed control at 121.5 g/ha of CCCO[C@H]1CCC[C@H](NC(=O)c2nccc(OC)c2OC(C)=O)C(=O)O[C@@H](C)[C@@H]1Oc1ccc(-c2ccccc2)cc1 , then report it.
[out] 80 to 100%

###

Parameter: pest or weed control at 100 ppm. Scope: all listed entries.
- System: Puccinia triticina; Synonym: Puccinia recondite f. sp. tritici
- testDetails: Wheat brown rust (PUCCRT) disease control on wheat seedlings
- Assay type: in vivo
- protocolConditions: Puccinia triticina, 72 h; High volume application, 100 ppm; 3 Day Curative; read-out: PUCCRT 3DC disease control
- Description: Technical grades of materials were dissolved in acetone, which were then mixed with nine volumes of water containing 110 ppm Triton X-100. The fungicide solutions were applied onto wheat seedlings using an automated booth sprayer to run-off. All sprayed plants were allowed to air dry prior to further handling. All fungicides were evaluated using the aforementioned method for their activity vs. all target diseases. […]

- compound: "CCCCCO[C@H]1[C@H](C)OC(=O)[C@@H](NC(=O)c2nccc(OC)c2O)CCC[C@@H]1OC1CCCC1 [F164]"
  targetDesc: "Puccinia triticina; Synonym: Puccinia recondite f. sp. tritici"
  observedProperty: "pest or weed control at 100 ppm"
  measurement: "80 to 100%"
- compound: "COc1ccnc(C(=O)N[C@H]2CCC[C@H](OCCCC(F)(F)F)[C@@H](OC3CCCC3)[C@H](C)OC2=O)c1OCOC(C)=O [F172]"
  targetDesc: "Puccinia triticina; Synonym: Puccinia recondite f. sp. tritici"
  observedProperty: "pest or weed control at 100 ppm"
  measurement: "80 to 100%"
- compound: "COc1ccnc(C(=O)N[C@H]2CCC[C@H](OCC(C)C)[C@@H](Oc3ccc(F)cc3)[C@H](C)OC2=O)c1OCOC(C)=O [F61]"
  targetDesc: "Puccinia triticina; Synonym: Puccinia recondite f. sp. tritici"
  observedProperty: "pest or weed control at 100 ppm"
  measurement: "80 to 100%"
- compound: "CCCO[C@H]1[C@H](C)OC(=O)[C@@H](NC(=O)c2nccc(OC)c2O)CCC[C@@H]1OCCC [F114]"
  targetDesc: "Puccinia triticina; Synonym: Puccinia recondite f. sp. tritici"
  observedProperty: "pest or weed control at 100 ppm"
  measurement: "80 to 100%"
- compound: "CCCO[C@H]1CCC[C@H](NC(=O)c2nccc(OC)c2OCOC(=O)C(C)C)C(=O)O[C@@H](C)[C@@H]1Oc1ccccc1 [F139]"
  targetDesc: "Puccinia triticina; Synonym: Puccinia recondite f. sp. tritici"
  observedProperty: "pest or weed control at 100 ppm"
  measurement: "80 to 100%"

Read the next record carefully.
[in] Quickly give me recorded pest or weed control at 100 ppm for CCCO[C@H]1CCC[C@H](NC(=O)c2nccc(OC)c2O)C(=O)O[C@@H](C)[C@@H]1OC1CCCC1 [F153]
[out] 80 to 100%

###

Parameter: pest or weed control at 100 ppm. Scope: all listed entries.
- System: Puccinia triticina; Synonym: Puccinia recondite f. sp. tritici
- testDetails: Wheat brown rust (PUCCRT) disease control on wheat seedlings
- Assay type: in vivo
- protocolConditions: Puccinia triticina, 72 h; High volume application, 100 ppm; 3 Day Curative; read-out: PUCCRT 3DC disease control

[in] Look up Puccinia triticina; Synonym: Puccinia recondite f. sp. tritici data: pest or weed control at 100 ppm of COc1ccnc(C(=O)N[C@H]2CCC[C@H](OCCCc3ccccc3)[C@@H](OCC(C)C)[C@H](C)OC2=O)c1OCOC(C)=O , then report it.
[out] 80 to 100%

[in] Look up Puccinia triticina; Synonym: Puccinia recondite f. sp. tritici data: pest or weed control at 100 ppm of COc1ccnc(C(=O)N[C@H]2CCC[C@H](OC3CCCC3)[C@@H](Oc3ccccc3)[C@H](C)OC2=O)c1OCOC(C)=O , then report it.
[out] 80 to 100%

[in] Look up Puccinia triticina; Synonym: Puccinia recondite f. sp. tritici data: pest or weed control at 100 ppm of COCCC(=O)Oc1c(OC)ccnc1C(=O)N[C@H]1CCC[C@H](OC2CCCC2)[C@@H](OC(=O)C2CC2)[C@H](C)OC1=O , then report it.
[out] 80 to 100%

[in] Look up Puccinia triticina; Synonym: Puccinia recondite f. sp. tritici data: pest or weed control at 100 ppm of COc1ccnc(C(=O)N[C@H]2CCC[C@H](Oc3ccc(F)cc3)[C@@H](OC3CCCC3)[C@H](C)OC2=O)c1OCOC(C)=O , then report it.
[out] 0 to 80%
